# SYSTEM UNDER TEST: Activin (UniProt P08476)
# TEST NAME: SPR
Assign Kd to each entry below.

[
  {
    "BINDER": "human recombinant BMPR-II ECD, wild type (domain or fragment) ASQNQERLCAFKDPYQQDLGIGESRISHENGTILCSKGSTCYGLWEKSKGDINLVKQGCWSHIGDPQECHYEECVVTTTPPSIQNGTYRFCCCSTDLCNVNFTENFPPPDTTPLSPPHSFNRDET",
    "OBSERVED": "26 µM"
  }
]

Turning now to a further binder:
**Q:** I am curious: what Kd value has been reported for BMPR-II ECD Y40P (domain or fragment) ASQNQERLCAFKDPPQQDLGIGESRISHENGTILCSKGSTCYGLWEKSKGDINLVKQGCWSHIGDPQECHYEECVVTTTPPSIQNGTYRFCCCSTDLCNVNFTENFPPPDTTPLSPPHSFNRDET ?
**A:** 70 µM
